Measured values drawn from patent US4442090A for this set.

assayInfo: Urinary excretions of β-lactam antibiotics after rectal suppository (rabbit)
Type: in vivo
measurementParameters: Cefmetazole 125 mg (potency), Compound (I) 5%, Witepsol H-15
Give measured Urinary excretions (%) 2-4 hr. for each item. Keep answers brief.
One number for each entry, in %.

// Urinary excretions (%) 2-4 hr. value for CCCCCCCCCC(=O)NCCC(=O)O : 19.9

For record CCCCN(CCCC)C(=O)CCC(=O)O the listed Urinary excretions (%) 2-4 hr. is 20.0

GET /value?item= CCCCCCCCCCCC(=O)N[C@H](C(=O)O)C(C)C &field=Urinary excretions (%) 2-4 hr. returns 10.0

Value of Urinary excretions (%) 2-4 hr. reported for the compound CCCCOc1ccc(C(=O)O)cc1 is 20.0

// next entry
The compound identified as CCCCCCCC(=O)Nc1ccc(C(=O)O)cc1 registered its Urinary excretions (%) 2-4 hr. at 21.1
